Hey, just so you know, these numbers are from paper PMC11345841.

Assay System: FLT3 (Homo sapiens)
Construct: purchased Eurofins DiscoverX KINOMEscan (scanTK)
Sequence (P36888 27-993): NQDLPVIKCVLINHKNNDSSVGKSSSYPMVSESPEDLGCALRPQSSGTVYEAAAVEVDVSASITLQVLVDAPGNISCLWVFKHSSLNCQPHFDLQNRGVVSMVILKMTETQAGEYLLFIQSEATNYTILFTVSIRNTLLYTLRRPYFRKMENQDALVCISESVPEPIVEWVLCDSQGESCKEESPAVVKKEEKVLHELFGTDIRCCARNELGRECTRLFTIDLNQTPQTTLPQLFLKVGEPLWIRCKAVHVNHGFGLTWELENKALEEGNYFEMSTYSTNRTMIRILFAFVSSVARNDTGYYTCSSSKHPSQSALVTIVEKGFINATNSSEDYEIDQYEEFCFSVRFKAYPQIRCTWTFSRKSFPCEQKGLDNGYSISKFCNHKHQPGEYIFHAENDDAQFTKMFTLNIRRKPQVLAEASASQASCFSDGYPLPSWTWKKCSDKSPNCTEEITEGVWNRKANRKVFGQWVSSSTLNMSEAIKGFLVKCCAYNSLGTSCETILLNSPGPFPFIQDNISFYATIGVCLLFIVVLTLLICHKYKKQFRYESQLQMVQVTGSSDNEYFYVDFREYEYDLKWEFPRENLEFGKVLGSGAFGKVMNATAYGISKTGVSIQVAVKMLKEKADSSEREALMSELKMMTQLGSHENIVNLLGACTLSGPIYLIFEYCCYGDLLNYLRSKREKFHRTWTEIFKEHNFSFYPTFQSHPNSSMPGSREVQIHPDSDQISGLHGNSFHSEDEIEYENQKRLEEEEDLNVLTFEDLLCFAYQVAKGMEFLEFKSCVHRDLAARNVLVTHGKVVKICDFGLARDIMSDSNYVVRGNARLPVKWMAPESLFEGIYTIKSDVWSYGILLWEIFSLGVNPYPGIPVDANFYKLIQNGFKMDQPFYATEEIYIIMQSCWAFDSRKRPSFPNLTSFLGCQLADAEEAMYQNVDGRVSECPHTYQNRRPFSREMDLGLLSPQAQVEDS
Assay Remarks: KINOMEscan ScanTK
Type: binding
Condition Description: read-out: %Control @1000nM
Recorded remaining binding at 1 µM, one value per entry.

Would you please look over these solved cases?
Task: Recall the recorded remaining binding at 1 µM for C=CC(=O)N1CCC[C@@H](n2nc(-c3ccc(Oc4ccccc4)cc3)c3c(N)ncnc32)C1 [Compound 1g, Ibrutinib, reference compound] with FLT3 (Homo sapiens) and state it.
Result: 33%

Task: Then Cc1cnc(S(C)(=O)=O)nc1N1CCCC(n2nc(-c3ccc(Oc4ccccc4)cc3)c3c(N)ncnc32)C1 (centres unmarked) [Compound 8a] ?
Result: 54%

Task: Entry CNC(=O)c1cnc(S(C)(=O)=O)nc1N1CCCC(n2nc(-c3ccc(Oc4ccccc4)cc3)c3c(N)ncnc32)C1 (centres unmarked) [Compound 8d] please
Result: 65%

Task: Let us now turn to COC(=O)c1cnc(S(C)(=O)=O)nc1N1CCCC(n2nc(-c3ccc(Oc4ccccc4)cc3)c3c(N)ncnc32)C1 (centres unmarked) [Compound 8b]
Result: 80%

Please look at the following compound next.
Task: Under FLT3 (Homo sapiens): remaining binding at 1 µM value of CCOC(=O)c1cnc(S(C)(=O)=O)nc1N1CCC[C@@H](n2nc(-c3ccc(Oc4ccccc4)cc3)c3c(N)ncnc32)C1 [Compound 8c] ?
Result: 93%
